Test system: Plasmodium berghei
assay-comment: Luciferase/luciferin-expressing antifolate-resistant parasites were used to infect a culture of HepG2 cells that were pre-incubated with compounds. Infected hepatocytes emit light due to the luciferase reaction. Assay results are presented as the percent inhibition of light emission compared to control. […]
Type: functional
condition-summary: sporozoite, HEPG2TOX_HILL_SLOPE 3.7, HEPG2TOX_R_SQUARED 0.887, PBLUC_HILL_SLOPE 12.4, PBLUC_R_SQUARED 0.779, read-out: LUCIFERASE INFECTION ASSAY - IC50
attribute-measured: pIC50
Hey, just a heads up that pIC50 is the negative log base 10 of the concentration in molar.

Give pIC50 for this entry on Plasmodium berghei: Cc1nnnn1/C(=C\c1cccc(F)c1)C(=O)NC(C)c1cc2ccccc2o1 (stereo unspecified)
5.47
